# TARGET: MMP-12 (Homo sapiens)
# Sequence (P39900 106-470): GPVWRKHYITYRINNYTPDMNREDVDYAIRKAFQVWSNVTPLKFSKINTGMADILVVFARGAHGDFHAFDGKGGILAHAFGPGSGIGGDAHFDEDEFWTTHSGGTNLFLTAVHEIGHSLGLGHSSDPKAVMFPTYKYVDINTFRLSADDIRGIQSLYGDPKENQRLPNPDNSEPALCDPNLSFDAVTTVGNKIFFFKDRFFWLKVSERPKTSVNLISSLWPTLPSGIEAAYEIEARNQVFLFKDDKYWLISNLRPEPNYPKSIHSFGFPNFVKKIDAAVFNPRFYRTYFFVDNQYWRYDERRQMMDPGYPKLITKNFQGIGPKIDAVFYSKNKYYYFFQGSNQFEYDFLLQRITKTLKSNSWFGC
QUANTITY_MEASURED: pIC50
Note on units: pIC50 is unitless, being -log10 of a concentration expressed in mol/L.

GET pIC50 | system: MMP-12 (Homo sapiens) | item: O=C(NCc1ccc(-c2ccccc2)cc1)c1cccc(=O)n1O [1,2-HOPO-2]
7.52
